Just for reference, the supplement of paper PMC7877785 is where these values come from.

# assaySummary: self-splicing fitness, log relative to wild type (ln ratio); higher = more splicing; Tetrahymena group I intron in knt gene, E. coli kanamycin selection, DiMSum; sequences stand for … in CUCUCU…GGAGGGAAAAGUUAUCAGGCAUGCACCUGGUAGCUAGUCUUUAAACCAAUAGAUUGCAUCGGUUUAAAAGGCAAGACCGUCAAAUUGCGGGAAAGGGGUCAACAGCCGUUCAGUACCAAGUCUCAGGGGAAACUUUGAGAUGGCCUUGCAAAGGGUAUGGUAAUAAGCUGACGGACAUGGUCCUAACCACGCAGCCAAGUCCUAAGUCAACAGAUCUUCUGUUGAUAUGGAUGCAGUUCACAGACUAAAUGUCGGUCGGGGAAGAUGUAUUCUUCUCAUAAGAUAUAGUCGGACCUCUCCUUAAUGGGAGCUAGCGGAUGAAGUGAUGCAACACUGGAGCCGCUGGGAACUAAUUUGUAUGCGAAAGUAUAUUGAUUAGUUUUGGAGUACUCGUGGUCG;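 further: selection with 25 µg/mL kanamycin versus none on LB agar overnight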
# assaySetup: 37 °C
Outcome label depends on self-splicing fitness (ln) relative to -0.8: at/above gives label 1, below gives label 0.

A selection of reference data follows.
# chainSequence, assignedLabel
data = [
    ("CCCCAGCAAUAUUACGGAAG", "label 0"),
    ("GUCCAGCAAUAUUACGAGUC", "label 1"),
    ("UGCUAGCAAUAUUACGUAAU", "label 0"),
]

Exercise: Please check the record "CGGUAGCAAUAUUACGUACC" and state if its self-splicing fitness (ln) is at or above -0.8.
Key: label 0

Exercise: Please check the record "CCAAAGCAAUAUUACGAGCC" and state if its self-splicing fitness (ln) is at or above -0.8.
Key: label 0

Exercise: Please check the record "GGGCAGCAAUAUUACGUCAA" and state if its self-splicing fitness (ln) is at or above -0.8.
Key: label 1

Exercise: Please check the record "GAGAAGCAAUAUUACGCGAA" and state if its self-splicing fitness (ln) is at or above -0.8.
Key: label 0

Exercise: Please check the record "UUCUAGCAAUAUUACGGAUU" and state if its self-splicing fitness (ln) is at or above -0.8.
Key: label 1

Exercise: Please check the record "UUGUAGCAAUAUUACGAAAU" and state if its self-splicing fitness (ln) is at or above -0.8.
Key: label 0

Exercise: Please check the record "GGGCAGCAAUAUUACGCGCU" and state if its self-splicing fitness (ln) is at or above -0.8.
Key: label 0

###

# assaySummary: self-splicing fitness, log relative to wild type (ln ratio); higher = more splicing; Tetrahymena group I intron in knt gene, E. coli kanamycin selection, DiMSum; sequences stand for … in CUCUCU…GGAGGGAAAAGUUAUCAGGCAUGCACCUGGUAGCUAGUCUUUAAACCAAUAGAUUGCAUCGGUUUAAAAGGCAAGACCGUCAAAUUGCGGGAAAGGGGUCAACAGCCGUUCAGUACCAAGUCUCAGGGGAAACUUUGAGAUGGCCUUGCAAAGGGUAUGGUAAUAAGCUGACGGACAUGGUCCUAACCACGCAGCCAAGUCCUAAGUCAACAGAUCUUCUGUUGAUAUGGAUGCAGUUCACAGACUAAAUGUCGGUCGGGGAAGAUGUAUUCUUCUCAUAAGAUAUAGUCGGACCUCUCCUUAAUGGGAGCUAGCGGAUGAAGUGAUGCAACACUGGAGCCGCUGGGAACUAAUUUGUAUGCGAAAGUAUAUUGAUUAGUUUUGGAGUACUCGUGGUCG
# assaySetup: 30 °C
Listed sequences paired with reported self-splicing fitness (ln)
Form: value (number only, do not type unit).

# annotated cases, reported self-splicing fitness (ln) shown
# chainSequence, self-splicing fitness (ln)
records = [
    ("CUGAAGCAAUAUUACGAUAG", -0.213),
    ("CGUUAGCAAUAUUACGGCGA", -1.6),
    ("GGAUAGCAAUAUUACGUAUU", -3.05),
    ("CGGAAGCAAUAUUACGCGUA", -2.96),
    ("UUUUAGCAAUAUUACGGUUU", -3.26),
    ("GCACAGCAAUAUUACGUAGG", -0.466),
    ("UGCUAGCAAUAUUACGCUAU", -2.75),
    ("UAGAAGCAAUAUUACGAACU", -1.79),
]

Exercise: Give the measured self-splicing fitness (ln) for "AGCCAGCAAUAUUACGAACC"
Key: -0.758

Exercise: Give the measured self-splicing fitness (ln) for "CGUUAGCAAUAUUACGGUAG"
Key: -0.514

Exercise: Give the measured self-splicing fitness (ln) for "GAUCAGCAAUAUUACGGGAG"
Key: -1.64

Exercise: Give the measured self-splicing fitness (ln) for "AGGAAGCAAUAUUACGACUC"
Key: -0.644

Exercise: Give the measured self-splicing fitness (ln) for "UCUUAGCAAUAUUACGAGAG"
Key: -2.35

Exercise: Give the measured self-splicing fitness (ln) for "GUGAAGCAAUAUUACGACCA"
Key: -0.647

###

# assaySummary: self-splicing fitness, log relative to wild type (ln ratio); higher = more splicing; Tetrahymena group I intron in knt gene, E. coli kanamycin selection, DiMSum; sequences stand for … in CUCUCU…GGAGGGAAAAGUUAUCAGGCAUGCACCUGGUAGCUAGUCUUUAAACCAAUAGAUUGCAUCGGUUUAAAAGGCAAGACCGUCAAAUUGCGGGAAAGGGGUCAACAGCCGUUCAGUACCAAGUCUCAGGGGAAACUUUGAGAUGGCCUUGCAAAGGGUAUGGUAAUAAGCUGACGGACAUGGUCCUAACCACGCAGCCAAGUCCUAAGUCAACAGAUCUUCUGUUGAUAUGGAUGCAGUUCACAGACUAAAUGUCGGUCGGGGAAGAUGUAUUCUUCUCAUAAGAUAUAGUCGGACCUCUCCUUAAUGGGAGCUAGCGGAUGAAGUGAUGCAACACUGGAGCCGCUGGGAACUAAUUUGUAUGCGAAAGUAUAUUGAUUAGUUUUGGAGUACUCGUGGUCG
# assaySetup: 37 °C
metric: self-splicing fitness (ln)
Form: value (number only, do not type unit).

# annotated cases, reported self-splicing fitness (ln) shown
# chainSequence, self-splicing fitness (ln)
data = [
    ("UAGGAGCAAUAUUACGUGCA", -1.41),
    ("GAGGAGCAAUAUUACGCAGA", -2.86),
    ("AGAAAGCAAUAUUACGCUUA", -0.632),
    ("ACAGAGCAAUAUUACGCCAA", -2.78),
    ("CGCUAGCAAUAUUACGGUUC", -0.893),
]

Exercise: Give the measured self-splicing fitness (ln) for "GUCUAGCAAUAUUACGAACU"
Key: -1.12

Exercise: Give the measured self-splicing fitness (ln) for "GAAGAGCAAUAUUACGAUGU"
Key: -1.39

Exercise: Give the measured self-splicing fitness (ln) for "UACCAGCAAUAUUACGCUUA"
Key: -0.478

Exercise: Give the measured self-splicing fitness (ln) for "ACUGAGCAAUAUUACGAACU"
Key: -1.24

Exercise: Give the measured self-splicing fitness (ln) for "UCGAAGCAAUAUUACGAAUU"
Key: -2.21

###

# assaySummary: self-splicing fitness, log relative to wild type (ln ratio); higher = more splicing; Tetrahymena group I intron in knt gene, E. coli kanamycin selection, DiMSum; sequences stand for … in CUCUCU…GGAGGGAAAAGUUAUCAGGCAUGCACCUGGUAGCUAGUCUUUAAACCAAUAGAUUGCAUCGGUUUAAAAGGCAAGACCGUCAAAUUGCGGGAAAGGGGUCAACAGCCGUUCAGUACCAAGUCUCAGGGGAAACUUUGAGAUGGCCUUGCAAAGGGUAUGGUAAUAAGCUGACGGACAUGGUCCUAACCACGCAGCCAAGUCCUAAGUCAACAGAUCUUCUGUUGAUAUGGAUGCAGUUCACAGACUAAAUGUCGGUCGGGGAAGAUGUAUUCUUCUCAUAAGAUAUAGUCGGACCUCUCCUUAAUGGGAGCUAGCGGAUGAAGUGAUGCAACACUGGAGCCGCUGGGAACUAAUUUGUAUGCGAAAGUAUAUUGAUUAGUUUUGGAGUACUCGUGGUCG
# assaySetup: 30 °C
Outcome label depends on self-splicing fitness (ln) relative to -2: at/above gives t, below gives f.

# chainSequence, assignedLabel
rows = [
    ("UGGAAGCAAUAUUACGGAUU", "t"),
    ("UUCAAGCAAUAUUACGCAAG", "f"),
]

Exercise: Please check the record "ACUCAGCAAUAUUACGUACU" and state if its self-splicing fitness (ln) is at or above -2.
Key: t

Exercise: Please check the record "AUCGAGCAAUAUUACGCCUU" and state if its self-splicing fitness (ln) is at or above -2.
Key: t

Exercise: Please check the record "GGGCAGCAAUAUUACGAUAC" and state if its self-splicing fitness (ln) is at or above -2.
Key: t

Exercise: Please check the record "ACUCAGCAAUAUUACGGAAU" and state if its self-splicing fitness (ln) is at or above -2.
Key: t

Exercise: Please check the record "AUGCAGCAAUAUUACGUGCC" and state if its self-splicing fitness (ln) is at or above -2.
Key: t

Exercise: Please check the record "CGUCAGCAAUAUUACGCGGG" and state if its self-splicing fitness (ln) is at or above -2.
Key: f
